# METHOD_NOTES: Thermal denaturation (CD) in 2M guanidinium chloride
# STUDY_CONDITIONS: 2M GdnHCl
Measured Tm (2M GdnHCl), midpoint of thermal denaturation of individual entries
ASSAY_READOUT: Tm (2M GdnHCl), midpoint of thermal denaturation

>  <SUBSTANCE>
Ac-IKKEIEAIKKEQEAIKKKIEAIEKLLQLTVWGIKQLQARIL-NH2 [IZN17, reference compound]

>  <VAL>
61.5 °C

$$$$
>  <SUBSTANCE>
IKKEIEAIKKEQEAIKKKIEAIEKaLQLTVWGIKQLQARIL (Ac-IKKEIEAIKKEQEAIKKKIEAIEKALQLTVWGIKQLQARIL-NH2) [IZN17A1]

>  <VAL>
51.7 °C

$$$$
>  <SUBSTANCE>
IKKEIEAIKKEQEAIKKKIEAIEKLLaLTVWGIKQLQARIL (Ac-IKKEIEAIKKEQEAIKKKIEAIEKLLALTVWGIKQLQARIL-NH2) [IZN17A3]

>  <VAL>
64.7 °C

$$$$
>  <SUBSTANCE>
IKKEIEAIKKEQEAIKKKIEAIEKLLQLTaWGIKQLQARIL (Ac-IKKEIEAIKKEQEAIKKKIEAIEKLLQLTAWGIKQLQARIL-NH2) [IZN17A6]

>  <VAL>
56.4 °C

$$$$
>  <SUBSTANCE>
IKKEIEAIKKEQEAIKKKIEAIEKLLQaTVWGIKQLQARIL (Ac-IKKEIEAIKKEQEAIKKKIEAIEKLLQATVWGIKQLQARIL-NH2) [IZN17A4]

>  <VAL>
58.2 °C

$$$$
>  <SUBSTANCE>
IKKEIEAIKKEQEAIKKKIEAIEKLLQLTVWGIKQLQARIa (Ac-IKKEIEAIKKEQEAIKKKIEAIEKLLQLTVWGIKQLQARIA-NH2; not fully specified (residue 41)) [IZN17A17]

>  <VAL>
60.6 °C

$$$$

----------
# METHOD_NOTES: Thermal denaturation (CD) in 2M guanidinium chloride
# STUDY_CONDITIONS: in the presence of 2M guanidinium chloride
Numbered stars: 1 amine (or outer) side, 2 acyl side, 3 side chain; on linkers, the order of the positions; unused ones are H or OH. Bridge positions count the residues as written; N and C are the ends. Square brackets hold non-standard residues; d marks the D form. Ends that are not written are not given here. I, II: the chains in the order shown. * marks the point of attachment. Ttds = O=C(CCC(=O)[*:2])NCCCOCCOCCOCCCN[*:1]; Acm = CC(=O)NC*
ASSAY_READOUT: melting temperature / midpoint of thermal denaturation

>  <SUBSTANCE>
ac-C(Acm)(thioE10N17)3: one ac-C(Acm)Ttds-CCE10N17 ligated via two thioether bonds to two acetyl-GGGE10N17 chains (peptide 1 {CH2CO}-C(Acm)[Ttds]CCIEEKIEEIEELLQLTVWGIKQLQARIL; peptide 2 Ac-GGGIEEKIEEIEELLQLTVWGIKQLQARIL; thioether I:N-I:3, I:N-I:4; numbers in words are those of the source; also: chain 2 present twice, each copy ligated via thioether to one of the two Cys of chain 1)

>  <VAL>
above 90 °C

$$$$
>  <SUBSTANCE>
(CCS17N17)3: covalent disulfide trimer of CCS17N17 (CCGGIEKKIEAIEKKIEAIEKLLQLTVWGIKQLQARIL; also: disulfide-linked homotrimer)

>  <VAL>
above 90 °C

$$$$
>  <SUBSTANCE>
IEKKIEAIEKKIEAIEKKIEAIEKLLQLTVWGIKQLQARIL [SZN17]

>  <VAL>
> 90 °C

$$$$
>  <SUBSTANCE>
Ac-IKKEIEAIKKEQEAIKKKIEAIEKLLQLTVWGIKQLQARIL-NH2 [IZN17, reference compound]

>  <VAL>
61.5 °C

$$$$

----------
# METHOD_NOTES: Thermal denaturation (CD) in 2M guanidinium chloride
# STUDY_CONDITIONS: 2M GdnHCl
Measured Tm (2M GdnHCl), midpoint of thermal denaturation of individual entries
ASSAY_READOUT: Tm (2M GdnHCl), midpoint of thermal denaturation (°C)

>  <SUBSTANCE>
IKKEIEAIKKEQEAIKKKIEAIEKLLQLTVWGIKQLQAaIL (Ac-IKKEIEAIKKEQEAIKKKIEAIEKLLQLTVWGIKQLQAAIL-NH2; not fully specified (residue 38); printed as IKKEIEAIKKEQEAIKKKIEAIEKLLQLTVWGIKQLQAaIL) [IZN17A15]

>  <UOM>
°C

>  <VAL>
77.2

$$$$
>  <SUBSTANCE>
IKKEIEAIKKEQEAIKKKIEAIEKLLQLTVWGIaQLQARIL (Ac-IKKEIEAIKKEQEAIKKKIEAIEKLLQLTVWGIAQLQARIL-NH2) [IZN17A10]

>  <UOM>
°C

>  <VAL>
68.1

$$$$
>  <SUBSTANCE>
IKKEIEAIKKEQEAIKKKIEAIEKLLQLTVWGIKaLQARIL (Ac-IKKEIEAIKKEQEAIKKKIEAIEKLLQLTVWGIKALQARIL-NH2; not fully specified (residue 35); printed as IKKEIEAIKKEQEAIKKKIEAIEKLLQLTVWGIKaLQARIL) [IZN17A11]

>  <UOM>
°C

>  <VAL>
66.0

$$$$
>  <SUBSTANCE>
IKKEIEAIKKEQEAIKKKIEAIEKLLQLTVaGIKQLQARIL (Ac-IKKEIEAIKKEQEAIKKKIEAIEKLLQLTVAGIKQLQARIL-NH2) [IZN17A7]

>  <UOM>
°C

>  <VAL>
61.4

$$$$
>  <SUBSTANCE>
IKKEIEAIKKEQEATKKKIEAIEKLLQLTVWGIKQLaARIL [IZN17A13]

>  <UOM>
°C

>  <VAL>
71.5

$$$$

----------
# Tested on: HIV-1 HXB2
# STUDY_CONDITIONS: HXB2
pIC50: −log10 of the molar value. Bridge positions count the residues as written; N and C are the ends. I, II: the chains in the order shown. * marks the point of attachment. Biotin = O=C1N[C@H]2[C@H](CS[C@H]2CCCCC(=O)*)N1

>  <SUBSTANCE>
I: Ac-CCGGIKKKIEAIEKLLQLTVWGIKQLQARIL-NH2 / II: Ac-CCGGIKKKIEAIEKLLQLTVWGIKQLQARIL-NH2 / III: Ac-CCGGIKKKIEAIEKLLQLTVWGIKQLQARIL-NH2 (disulfide I:1-III:2, I:2-II:2, II:1-III:1; C-terminus assumed) [(CCI10N17)3]

>  <pIC50>
7.62

$$$$
>  <SUBSTANCE>
Ac-LLQLTVWGIKQLQARILAIKKEIEAIKKEQEAIKKKIEAI-NH2 (C-terminus assumed) [N17IZ]

>  <pIC50>
6.10

$$$$
>  <SUBSTANCE>
Biotin-GGIKKEIEAIKKEQEAIKKKIEAIEKEIEAQQHLLQLTVWGIKQLQARIL-NH2 [Biotin-IZN23]

>  <pIC50>
8.66

$$$$
>  <SUBSTANCE>
Ac-IKKEIEAIKKEQEAIKKKIEAIEKLLQLTVWGIKQLQARIL-NH2 [IZN17, reference compound]

>  <pIC50>
8.77

$$$$

----------
# System: D5 IgG binding to biotinylated 5-Helix
# METHOD_NOTES: Biotinylated 5-Helix/D5 IgG interaction (competition) assay, AlphaScreen
ASSAY_READOUT: D5 IgG binding in bio-5-Helix/D5 IgG interaction assay, in words

>  <SUBSTANCE>
CCGGIEKKIEEIEKKIEEIEKKIEEIEKLLQLTVWGIKQLQARIL [CCEZN17]

>  <VAL>
interact with D5 IgG

$$$$
>  <SUBSTANCE>
IEKKIEEIEKKIEEIEKKIEEIEKLLQLTVWGIKQLQARIL [EZN17]

>  <VAL>
interact with D5 IgG

$$$$

FYI, the data here is from patent US7811577B2.
